Kindly state activity at 100 µM for each of the entries shown.
# procedureText: Cytotoxic effect against D-98 cells
# Assay type: cell-based
# conditionContext: human, 10⁻⁴ M, % growth relative to the control
# Procedure: The following compounds were tested for cytotoxic effect at 10⁻⁴ M against human D-98 and mouse L cells. Figures shown are % growth relative to the control.
Report the value in % with no unit label.

Memo: Nc1ncc2ncn([C@H]3CC[C@@H](CO)O3)c2n1 , reported activity at 100 µM: 97

Recorded result, Nc1nc(N)c2ncn([C@H]3CC[C@@H](CO)O3)c2n1 , activity at 100 µM: 97

Short answer for Nc1nc2c(ncn2[C@H]2CC[C@@H](CO)O2)c(=O)[nH]1 [2',3'-dideoxyguanosine, reference compound] : activity at 100 µM was 87
